Measurement record for Heat shock protein HSP 90-alpha (Homo sapiens) (UniProt P07900); quantity recorded: IC50.

Test system Heat shock protein HSP 90-alpha (Homo sapiens) (UniProt P07900); read-out IC50; what value for Cc1c(-c2nc(-c3ccc(C(C)(C)C)cc3)no2)n(C)oc1=O ?
< 3 nM

Test system Heat shock protein HSP 90-alpha (Homo sapiens) (UniProt P07900); read-out IC50; what value for Cc1c(-c2nc(-c3ccc(C(F)(F)F)cc3)no2)n(C)oc1=O ?
1600 nM

Test system Heat shock protein HSP 90-alpha (Homo sapiens) (UniProt P07900); read-out IC50; what value for CC(=O)Nc1ccccc1OCC(=O)c1cc(C)n(Cc2cccs2)c1C ?
100 nM

Test system Heat shock protein HSP 90-alpha (Homo sapiens) (UniProt P07900); read-out IC50; what value for CCOC(=O)c1csc(NC(=O)c2cc3ccccc3o2)n1 ?
878 nM

Test system Heat shock protein HSP 90-alpha (Homo sapiens) (UniProt P07900); read-out IC50; what value for COc1cc(C=NNc2ccc(Cl)c(C(=O)O)c2)ccc1OC(=O)c1ccc(F)cc1 ?
1820 nM

Test system Heat shock protein HSP 90-alpha (Homo sapiens) (UniProt P07900); read-out IC50; what value for CCOC(=O)C1=C(c2ccc(OC)cc2)C(=O)c2ccccc2C1=O ?
308 nM

Test system Heat shock protein HSP 90-alpha (Homo sapiens) (UniProt P07900); read-out IC50; what value for COc1ccccc1NC(=O)c1coc(=O)c(Br)c1 ?
457 nM

Test system Heat shock protein HSP 90-alpha (Homo sapiens) (UniProt P07900); read-out IC50; what value for CCc1ccc(OCc2ccc(C(=O)OC)o2)cc1 ?
1030 nM

Test system Heat shock protein HSP 90-alpha (Homo sapiens) (UniProt P07900); read-out IC50; what value for Cc1cc(NO)nc(-c2ccc(Br)cc2)n1 ?
871 nM
